Measured values drawn from PubChem BioAssay AID1159580 for this set.

Quick list: normalized growth per entry.
- assay comment: chemical genetic growth profiling, strain panel (AID 1159580);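 also: tested at 20 µM; growth read once vehicle control cultures reached saturation at 30 °C; 1 = growth at the plate median or of vehicle wells; lower values mean less growth of the strain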
- experimental setup: S. cerevisiae deletion strains, growth OD, locus YNL322C, strain KRE1 (second series), stronger effect = lower value
Among all 5,500 compounds or so, about 2,000 (36%) were called active. Roughly 18% stayed inconclusive and do not appear here. This is one part of the list.
Could you respond with only the numeric value?

Consider the following illustrative entries.
- NS(=O)(=O)c1cc(C2(O)NC(=O)c3ccccc32)ccc1Cl (configuration not stated): 0.983
- CCCCCCC(C)OC(=O)COc1ccc(Cl)cc1Cl (configuration not stated): 0.992

Recorded result, NC(=O)NCCCC(N)C(=O)O (configuration not stated) , normalized growth: 0.988

Consider CC(C1OC(C)(C)C(O)C1O)[C@@H]1CC[C@]2(C)C3=CCC4C(C)(C)C(=O)CC[C@]4(C)C3CC[C@@]12C (some centres not stated) . Its measured normalized growth is 0.975

The measured normalized growth associated with CC1(C)C(=O)C=C[C@@]2(C)C1C=C[C@]1(C)C2CC[C@@]2(C)[C@H](c3ccoc3)OC(=O)C3OC321 (some centres not stated) reads 1.01

The reported normalized growth of the compound N#Cc1nn(-c2c(Cl)cc(C(F)(F)F)cc2Cl)c(N)c1S(=O)C(F)(F)F (configuration not stated) was 1

normalized growth reading for C=C[C@H]1CN2CC[C@H]1C[C@@H]2[C@@H](OC(=O)OCC)c1ccnc2ccc(OC)cc12 : 0.988

Reported normalized growth of COc1cc(OC)c2c(=O)c(OC)c(-c3ccc(OC)c(OC)c3)oc2c1 : 1.02

compound CC(C)(C)NCC(O)c1cc(Cl)c(N)c(Cl)c1 (configuration not stated) , normalized growth observed: 0.997

Lab note: measured normalized growth of NC(=O)c1ncn([C@@H]2O[C@H](CO)[C@@H](O)[C@H]2O)n1 was 0.979

Value of measured normalized growth for the entry COc1ccc(-c2cc(=O)c3c(O)cc(O[C@H]4O[C@H](CO[C@@H]5O[C@@H](C)[C@H](O)[C@@H](O)[C@H]5O)[C@@H](O)[C@H](O)[C@H]4O)cc3o2)cc1 : 1

// field: normalized growth; key: CC1(C)C(=O)C=C[C@@]2(C)C1C[C@@H](O)[C@]1(C)C2CC[C@@]2(C)[C@H](c3ccoc3)OC(=O)[C@H]3O[C@]321 (some centres not stated) ; value = 1.01
